Assay System: Calcium release-activated calcium channel protein 1 (Homo sapiens, UniProt Q96D31)
Sequence (Q96D31 whole entry): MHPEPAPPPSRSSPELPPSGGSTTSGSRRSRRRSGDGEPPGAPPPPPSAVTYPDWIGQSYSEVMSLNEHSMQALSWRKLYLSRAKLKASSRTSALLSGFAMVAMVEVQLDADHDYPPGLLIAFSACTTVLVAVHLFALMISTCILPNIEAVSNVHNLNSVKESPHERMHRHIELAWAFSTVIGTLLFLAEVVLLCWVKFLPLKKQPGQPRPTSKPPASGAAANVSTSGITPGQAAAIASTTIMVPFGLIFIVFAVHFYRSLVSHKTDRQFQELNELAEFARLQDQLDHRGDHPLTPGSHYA
pKi: −log10 of the molar value.
Readout Name: pKi

Input Nc1ncnc2nc(-c3ccc(N4CCOCC4)nc3)cc(-c3cccc(Br)c3)c12 . Output pKi: < 5.00

---

Readout Name: Ki

# Ki measured on Glutamate receptor ionotropic, kainate 1 (Rattus norvegicus, UniProt P22756) for item Nc1ncnc2nc(-c3ccc(N4CCOCC4)nc3)cc(-c3cccc(Br)c3)c12 = > 10 µM

---

Assay System: UniProt:P49218
Sequence (P49218 whole entry): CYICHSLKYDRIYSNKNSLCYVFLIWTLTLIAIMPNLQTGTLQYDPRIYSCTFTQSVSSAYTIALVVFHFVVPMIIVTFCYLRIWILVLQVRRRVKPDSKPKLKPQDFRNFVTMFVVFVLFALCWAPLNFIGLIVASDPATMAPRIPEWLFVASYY
Readout Name: Ki

What the record says about Nc1ncnc2nc(-c3ccc(N4CCOCC4)nc3)cc(-c3cccc(Br)c3)c12 : Ki is > 10 µM

---

Assay System: Kappa-type opioid receptor (Rattus norvegicus)
Sequence (P34975 whole entry): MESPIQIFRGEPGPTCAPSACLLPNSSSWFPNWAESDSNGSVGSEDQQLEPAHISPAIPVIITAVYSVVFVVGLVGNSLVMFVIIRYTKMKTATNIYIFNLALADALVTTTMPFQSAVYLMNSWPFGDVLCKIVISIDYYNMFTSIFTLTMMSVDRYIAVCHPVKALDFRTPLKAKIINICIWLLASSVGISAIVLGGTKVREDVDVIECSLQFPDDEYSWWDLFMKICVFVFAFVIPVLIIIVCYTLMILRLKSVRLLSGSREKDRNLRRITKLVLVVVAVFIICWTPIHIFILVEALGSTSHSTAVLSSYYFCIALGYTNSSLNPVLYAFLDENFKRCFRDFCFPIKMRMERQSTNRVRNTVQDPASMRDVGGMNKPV
Readout Name: Ki (µM)
Express your answer in µM, writing the number without its unit.

Briefly, Ki measured for Nc1ncnc2nc(-c3ccc(N4CCOCC4)nc3)cc(-c3cccc(Br)c3)c12 : 4.6
